Reported folding enthalpy values for a set of sequences
Experiment: folding enthalpy; higher = less favourable; fluorescence melt of hairpins on a sequencing array, two-state fit
Conditions: sodium 0.088 M
MEASURED_ENDPOINT: folding enthalpy (kcal/mol)

PRIMARY_SEQUENCE	UNIT_DESCRIPTOR	NUMERIC_VALUE
GGCATCTCGAAAGAGGCC (((..(((....))))))	kcal/mol	-26.6
GCCTTGCGAAAGCATCGC ((..(((....)))..))	kcal/mol	-12.4
GTCAAGCGAAAGCTGAC (((.(((....))))))	kcal/mol	-25.6
GTAGACGAAAGTCACTAC ((((((....)))..)))	kcal/mol	-14.2
GCGAGACGAAAGTCCCGC (((.(((....))).)))	kcal/mol	-35.6
GATCACTATCGTGATC ((((((....))))))	kcal/mol	-41.2

====

Experiment: folding enthalpy; higher = less favourable; fluorescence melt of hairpins on a sequencing array, two-state fit
Conditions: sodium 0.088 M
Reported folding enthalpy values for a set of sequences
MEASURED_ENDPOINT: folding enthalpy (kcal/mol)

PRIMARY_SEQUENCE	MEASURED_ENDPOINT	NUMERIC_VALUE
GCAGTGGGAAACCACCAC (..((((....))))..)	folding enthalpy	-12.2
GATGCAGGAAACCGCATC (((((.(....).)))))	folding enthalpy	-33.5
GAAGGACGAAAGTCTTC (((.(((....))))))	folding enthalpy	-14.7
GGTGAGGGAAACCTCATC (.(((((....))))).)	folding enthalpy	-25.1
GTGAAAGGAAACCTTCAC (((((.(....).)))))	folding enthalpy	-27
GCTGTAGGAAACTATGGC ((..(((....)))..))	folding enthalpy	-26.3
GAAAACGAAAGTTGATTC ((((((....)))..)))	folding enthalpy	-17.8
GGTCGAGGAAACCCGACC (((((.(....).)))))	folding enthalpy	-49.6
GGTTCTGAAAAGAACC ((((((....))))))	folding enthalpy	-33.3
GTAGAAGGAAACTTCTGC (.(((((....))))).)	folding enthalpy	-23.1
GCATATCGAAAGATCTGC (((.(((....))).)))	folding enthalpy	-31.2
GCTAGGCGAAAGCGTCGC ((.(.((....)).).))	folding enthalpy	-14.3
GGTGATGGAAACATTGCC ((..(((....)))..))	folding enthalpy	-32.5
GTCTCGGGAAACTGGGAC (((.(.(....).).)))	folding enthalpy	-29.3
GATCTCCCCCGAGATC ((((((....))))))	folding enthalpy	-36
GCTTCGGGAAACTGGAGC (((.(.(....).).)))	folding enthalpy	-32.7
GATCTATCTATAGATC ((((((....))))))	folding enthalpy	-38
GCGATAGGTCGC ((((....))))	folding enthalpy	-24.5
GGCGCAGCGAAAGCTGCC (((..(((....))))))	folding enthalpy	-6.91
CGTACCGGAAACGGGACG (((.(((....))).)))	folding enthalpy	-36.4
GATCGAGTGCTCGATC ((((((....))))))	folding enthalpy	-58.9
GTAAACGAAAGTTTTAC ((((((....))).)))	folding enthalpy	-18.5
TTAGCGAAAGCTAA (((((....)))))	folding enthalpy	-16.2
GTGCAAGGAAACTTGCAC (((((((....)))))))	folding enthalpy	-31.8
GCTACGGAAACGTAGC ((((((....))))))	folding enthalpy	-42

====

Assay: folding enthalpy; higher = less favourable; fluorescence melt of hairpins on a sequencing array, two-state fit
Settings: sodium 0.088 M
MEASURED_ENDPOINT: folding enthalpy (kcal/mol)

PRIMARY_SEQUENCE	MEASURED_ENDPOINT	NUMERIC_VALUE
GCCCCAGGAAACTAGGGC ((((.((....)).))))	folding enthalpy	-29.1
GATCTTCTCAAGATC ((((((...))))))	folding enthalpy	-33.3
GCATCCGAAAGGAAGTGC ((((((....)))..)))	folding enthalpy	-24.3
GGCTGCTCGAAAGAGGCC (((..(((....))))))	folding enthalpy	-19.7
GTCGTAGAAATACGAC ((((((....))))))	folding enthalpy	-38
GTGTACGAAAGTAGCAC ((((((....))).)))	folding enthalpy	-23.6
GAAATTGGAAACAATTCC (.(((((....))))).)	folding enthalpy	-22.9
GGGCGGCGAAAGCCCCC (((.(((....))))))	folding enthalpy	-17.3
GGATAGCCGAAAGGCTCC (((..(((....))))))	folding enthalpy	-9.11
GATCAGAGTGCTGATC ((((((....))))))	folding enthalpy	-31.2
GCGACCGCTCGC ((((....))))	folding enthalpy	-17.3
GCGCGGCGAAAGCTTCGC (((..((....))..)))	folding enthalpy	-20.8
GATCGCGGGGCGATC ((((((...))))))	folding enthalpy	-29.8
GATCGTCCCACGATC ((((((...))))))	folding enthalpy	-38.5
GACAGGCGAAAGCCGTC (((.(((....))))))	folding enthalpy	-11.3
GCCACGGGAAACCGCGAC (.(.(((....))).).)	folding enthalpy	-12.1
GGTTACGGAAACGTAACC (((((((....)))))))	folding enthalpy	-43
GATCTGTAGCAGATC ((((((...))))))	folding enthalpy	-37.4
GCCCGGGCGAAAGCCGGC (((..(((....))))))	folding enthalpy	-12.5
GATCGGTCGACCGATC ((((((....))))))	folding enthalpy	-49.7
GGCTACGCGAAAGCGGCC (((..(((....))))))	folding enthalpy	-17.2
GCGTCCTTACGC ((((....))))	folding enthalpy	-23.6
GATCTGTAACAGATC ((((((...))))))	folding enthalpy	-33.5
GACCTCGGAAACAAGGTC (((((.(....).)))))	folding enthalpy	-32.1
GCCCACGGAAACGTGGAC (.(((((....))))).)	folding enthalpy	-14.1
GCAACGGGAAACCATCGC ((.(.((....)).).))	folding enthalpy	-12.5

====

Experiment: folding enthalpy; higher = less favourable; fluorescence melt of hairpins on a sequencing array, two-state fit
Conditions: sodium 0.088 M
Label rule met for high-side folding enthalpy (at or above -30 kcal/mol) and rule not met for low-side folding enthalpy (below it).

PRIMARY_SEQUENCE	DISCRETE_LABEL
GTTTCGCGAAAGCGAAC (((.(((....))))))	rule met
GAGTACGAAAGTATCTC ((((((....))).)))	rule met
GATCGGGAGCCCGATC ((((((....))))))	rule not met
GAGCGGCGAAAGCCACTC (((.(((....))).)))	rule met
GGTGTCCGAAAGGAGACC (((.(((....))).)))	rule not met
GGACCGGGAAACCGGCCC ((.((((....)))).))	rule met
GTGGACGAAAGTCAGCAC ((((((....)))..)))	rule met
GGAAGCGAAAGCTCGTCC ((((((....)))..)))	rule met
GTACCGGAAACGGTAC ((((((....))))))	rule not met
GGCGATACGAAAGTAGCC (((..(((....))))))	rule met
GAGGAAGGAAACTTCCCC (.(((((....))))).)	rule met
GAAGGCGGAAACGCCCTC ((.((((....)))).))	rule met
CGTAGGAAACTACG (((((....)))))	rule met
GTGCAAGGAAACTTGTAC ((.((((....)))).))	rule not met
GATCTGCCGCAGATC ((((((...))))))	rule not met
CGTACGGAAACGTGACG ((((((....))).)))	rule met
GAACGAGAAATCGTTC ((((((....))))))	rule not met
GTAGTCGGAAACAACTAC (((((.(....).)))))	rule met
GGACCACGAAAGTGCTCC (((.(((....))).)))	rule met
GGGATCGAAAGATACCC ((((((....))).)))	rule met
GATCTGATCCCAGATC ((((((....))))))	rule met
GATCTGAAGCAGATC ((((((...))))))	rule met
GCCAGGCGAAAGCTGGGC (((..((....))..)))	rule met
CGTAGACGGAAACGTACG (((..(((....))))))	rule met

====

Experiment: folding enthalpy; higher = less favourable; fluorescence melt of hairpins on a sequencing array, two-state fit
Conditions: sodium 0.088 M
Reported folding enthalpy values for a set of sequences
MEASURED_ENDPOINT: folding enthalpy (kcal/mol)

PRIMARY_SEQUENCE	UNIT_DESCRIPTOR	NUMERIC_VALUE
GAGGATGGAAACATCCTC (((((((....)))))))	kcal/mol	-49.6
GAGCGCGGAAACACGCTC (((((.(....).)))))	kcal/mol	-41.1
GCGAAGCGAAAGCGCCGC (((..((....))..)))	kcal/mol	-17.9
GCTATAGGAAACTATGGC ((.((((....)))).))	kcal/mol	-28.6
GATCTCAAACGAGATC ((((((....))))))	kcal/mol	-41.4
GCGGAATCCCGC ((((....))))	kcal/mol	-22.1
GACGGCGAAAGCCGGTC ((((((....))).)))	kcal/mol	-11.6
GGGGACGAAAGTCGACCC ((((((....)))..)))	kcal/mol	-18.3
GCAGACCGAAAGGTGTGC (((.(((....))).)))	kcal/mol	-35.8
GATCTAGCATTAGATC ((((((....))))))	kcal/mol	-43.5
GGAGGATCGAAAGATTCC (((..(((....))))))	kcal/mol	-19.1
GACAGCGAAAGCTCCGTC ((((((....)))..)))	kcal/mol	-9.29
GCTGCATCGAAAGATAGC (((..(((....))))))	kcal/mol	-17
GCGAACTCGAAAGAGCGC (((..(((....))))))	kcal/mol	-27.6
GCGTGCTACGC ((((...))))	kcal/mol	-18.7
GATTTGGAAACAAATC ((((((....))))))	kcal/mol	-40.2
GTTGGGGGAAACCCCAAC (((((((....)))))))	kcal/mol	-45.9
GTTTAAGGAAACCTAAAC (((((.(....).)))))	kcal/mol	-9.26
GAGTACGAAAGTAAGCTC ((((((....)))..)))	kcal/mol	-14.9
GCGACGCGAAAGCGATGC ((..(((....)))..))	kcal/mol	-24.1
GCTTCCGAAAGGAAAAGC ((((((....)))..)))	kcal/mol	-17.6
GATCGGAAGTCCGATC ((((((....))))))	kcal/mol	-38.9
GTAACCGGAAACAGTTAC (((((.(....).)))))	kcal/mol	-21.2
GCACCGCGAAAGCGTTGC (((.(((....))).)))	kcal/mol	-42.6
CGTCCGGAAACGGCGACG ((((((....)))..)))	kcal/mol	-13.6
